# tested_target: Beta-2 adrenergic receptor (Homo sapiens)
assay_readout: -Delta G
Respond using a number only.

>>> df
                                compound  obs_value
0   CC(C)NCC(O)c1ccc(O)c(CO)c1 (racemic)        9.6
1  CNc1cc(C(O)CNC(C)(C)C)ccc1O (racemic)       10.5

Query string: If you can, please state the reported -Delta G value of CC(C)(C)NCC(O)c1ccc(O)c(O)c1 (racemic) .
Result string: 11.7

Query string: // query -Delta G value for entry CNC[C@H](O)c1ccc(O)c(O)c1
Result string: 10.1

Query string: Item CC(C)NCC(O)c1ccc(O)c(N)c1 (racemic) has what recorded -Delta G?
Result string: 9.13

Query string: What measured -Delta G goes with CC(C)(C)NCC(O)c1ccc(O)c(C(N)=O)c1 (racemic) ?
Result string: 11.2

Query string: Param item = CC(C)NCC(O)c1cc(Cl)c(N)c(Cl)c1 (racemic) ; retrieve measured -Delta G.
Result string: 11.1

Query string: Dear colleague, I am looking for the recorded -Delta G of the following compound: NC[C@H](O)c1ccc(O)c(O)c1
Result string: 8.64

Query string: Which -Delta G is reported for this compound? CC(C)NCC(O)c1cc(O)cc(O)c1 (racemic)
Result string: 10.7

Query string: Param item = CC(C)(C)NCC(O)c1ccc(O)c(N)c1 (racemic) ; retrieve measured -Delta G.
Result string: 9.69

Query string: # input compound: CC(C)NCC(O)c1ccc(O)cc1 (racemic) ; wanted: its -Delta G
Result string: 9.76

====

# tested_target: Beta-2 adrenergic receptor (Bos taurus)
# condition_context: Muscle tissue
# Description: Change in Gibb's free energy at Low affinity beta-2-adrenoceptor in the membranes of bovine skeletal muscle preparation
Could you please mark TRUE for values of -Delta G below 10 and FALSE for values at or above it?

Here's what some known entries look like.
>>> df
                                   compound  category_label
0  C=CCc1ccccc1OCC(O)CNC(C)C (stereo not given)           FALSE
1          CC(C)NCC(O)c1cccc(O)c1 (racemic)            TRUE
2     Cc1cc(C)cc(OCC(O)CNC(C)C)c1 (racemic)           FALSE
3    CC(C)(C)NCC(O)c1ccc(O)c(N)c1 (racemic)            TRUE
4  CC(C)NCC(O)c1ccc(NS(C)(=O)=O)cc1 (racemic)            TRUE
5   CC(C)(C)NCC(O)c1ccc(O)c(CO)c1 (racemic)            TRUE
6    CC(C)NC[C@H](O)COc1ccc(O)cc1 (racemic)            TRUE
7       CC(C)NCC(O)c1ccc(O)c(N)c1 (racemic)            TRUE

# evaluate next
Query string: Lab note: confirm whether the reported -Delta G for this compound is below 10, equality not counting. compound: CC(C)NCC(O)c1cc(Cl)c(N)c(Cl)c1 (racemic)
Result string: FALSE
